biological target: HRgpA-6H (Porphyromonas gingivalis) (UniProt P28784); assay: ELISA, FASEBA Fab on coated HRgpA-6H
Definition: the class of an entry is the range in bucket A: < 0.7; bucket B: ≥ 0.7 and < 0.8; bucket C: ≥ 0.8 that contains its OD450nm.

[
  {
    "binder": "KB001 mouse Fab VL S32P (Fab, V domains shown) VH: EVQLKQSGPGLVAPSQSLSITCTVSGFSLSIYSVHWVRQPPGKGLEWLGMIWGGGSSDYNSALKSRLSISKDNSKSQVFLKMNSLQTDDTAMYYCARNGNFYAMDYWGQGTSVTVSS VL: QIVLTQSPAIMSASLGERVTMTCTASSSVSSPFLHWYQQKPGSSPQLWIYSTSNLASGVPARFSGSGSGTSYSLTISSMEAEDAATYYCHQYHHSPYIYTFGGGTKLEIK",
    "assigned_class": "bucket B"
  },
  {
    "binder": "KB001 mouse Fab VL S27L (Fab, V domains shown) VH: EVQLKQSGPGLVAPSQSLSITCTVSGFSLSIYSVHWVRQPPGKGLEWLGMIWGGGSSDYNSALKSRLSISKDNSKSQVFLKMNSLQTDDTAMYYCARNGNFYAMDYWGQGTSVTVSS VL: QIVLTQSPAIMSASLGERVTMTCTASLSVSSSFLHWYQQKPGSSPQLWIYSTSNLASGVPARFSGSGSGTSYSLTISSMEAEDAATYYCHQYHHSPYIYTFGGGTKLEIK",
    "assigned_class": "bucket A"
  },
  {
    "binder": "KB001 mouse Fab VL N54D (Fab, V domains shown) VH: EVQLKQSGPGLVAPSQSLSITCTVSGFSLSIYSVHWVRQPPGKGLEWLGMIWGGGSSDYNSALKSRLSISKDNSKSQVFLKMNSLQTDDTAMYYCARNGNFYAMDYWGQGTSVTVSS VL: QIVLTQSPAIMSASLGERVTMTCTASSSVSSSFLHWYQQKPGSSPQLWIYSTSDLASGVPARFSGSGSGTSYSLTISSMEAEDAATYYCHQYHHSPYIYTFGGGTKLEIK",
    "assigned_class": "bucket B"
  },
  {
    "binder": "KB001 mouse Fab VL S31Y (Fab, V domains shown) VH: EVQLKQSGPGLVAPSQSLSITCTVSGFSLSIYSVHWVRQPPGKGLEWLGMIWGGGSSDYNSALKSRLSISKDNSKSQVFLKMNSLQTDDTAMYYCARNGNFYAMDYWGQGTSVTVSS VL: QIVLTQSPAIMSASLGERVTMTCTASSSVSYSFLHWYQQKPGSSPQLWIYSTSNLASGVPARFSGSGSGTSYSLTISSMEAEDAATYYCHQYHHSPYIYTFGGGTKLEIK",
    "assigned_class": "bucket C"
  },
  {
    "binder": "KB001 mouse Fab VL T100M (Fab, V domains shown) VH: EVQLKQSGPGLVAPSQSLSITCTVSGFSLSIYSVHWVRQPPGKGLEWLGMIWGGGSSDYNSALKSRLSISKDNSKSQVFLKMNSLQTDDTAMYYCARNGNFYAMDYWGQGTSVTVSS VL: QIVLTQSPAIMSASLGERVTMTCTASSSVSSSFLHWYQQKPGSSPQLWIYSTSNLASGVPARFSGSGSGTSYSLTISSMEAEDAATYYCHQYHHSPYIYMFGGGTKLEIK",
    "assigned_class": "bucket A"
  },
  {
    "binder": "KB001 mouse Fab VL T24A (Fab, V domains shown) VH: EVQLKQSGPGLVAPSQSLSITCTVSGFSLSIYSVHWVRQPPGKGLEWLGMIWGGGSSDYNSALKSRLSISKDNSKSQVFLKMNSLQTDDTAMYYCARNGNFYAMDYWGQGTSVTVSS VL: QIVLTQSPAIMSASLGERVTMTCAASSSVSSSFLHWYQQKPGSSPQLWIYSTSNLASGVPARFSGSGSGTSYSLTISSMEAEDAATYYCHQYHHSPYIYTFGGGTKLEIK",
    "assigned_class": "bucket B"
  },
  {
    "binder": "KB001 mouse Fab VL T100R (Fab, V domains shown) VH: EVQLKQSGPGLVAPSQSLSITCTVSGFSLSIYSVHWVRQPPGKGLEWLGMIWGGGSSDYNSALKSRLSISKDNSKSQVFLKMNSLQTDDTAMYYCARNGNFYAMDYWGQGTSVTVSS VL: QIVLTQSPAIMSASLGERVTMTCTASSSVSSSFLHWYQQKPGSSPQLWIYSTSNLASGVPARFSGSGSGTSYSLTISSMEAEDAATYYCHQYHHSPYIYRFGGGTKLEIK",
    "assigned_class": "bucket A"
  },
  {
    "binder": "KB001 mouse Fab VL S53W (Fab, V domains shown) VH: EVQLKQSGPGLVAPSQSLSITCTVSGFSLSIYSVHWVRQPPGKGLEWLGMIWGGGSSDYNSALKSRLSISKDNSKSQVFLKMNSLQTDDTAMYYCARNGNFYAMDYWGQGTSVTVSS VL: QIVLTQSPAIMSASLGERVTMTCTASSSVSSSFLHWYQQKPGSSPQLWIYSTWNLASGVPARFSGSGSGTSYSLTISSMEAEDAATYYCHQYHHSPYIYTFGGGTKLEIK",
    "assigned_class": "bucket B"
  },
  {
    "binder": "KB001 mouse Fab VL V29I (Fab, V domains shown) VH: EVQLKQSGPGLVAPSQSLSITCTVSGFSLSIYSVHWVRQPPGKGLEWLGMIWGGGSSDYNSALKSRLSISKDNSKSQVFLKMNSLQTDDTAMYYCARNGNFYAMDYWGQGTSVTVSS VL: QIVLTQSPAIMSASLGERVTMTCTASSSISSSFLHWYQQKPGSSPQLWIYSTSNLASGVPARFSGSGSGTSYSLTISSMEAEDAATYYCHQYHHSPYIYTFGGGTKLEIK",
    "assigned_class": "bucket C"
  }
]
